Biological target: GPR120 (Homo sapiens, UniProt Q5NUL3)
Construct: expressed in transfected cells; host or cells: CHO mitoPhotinaGPR120 cells
Sequence (Q5NUL3 1-361): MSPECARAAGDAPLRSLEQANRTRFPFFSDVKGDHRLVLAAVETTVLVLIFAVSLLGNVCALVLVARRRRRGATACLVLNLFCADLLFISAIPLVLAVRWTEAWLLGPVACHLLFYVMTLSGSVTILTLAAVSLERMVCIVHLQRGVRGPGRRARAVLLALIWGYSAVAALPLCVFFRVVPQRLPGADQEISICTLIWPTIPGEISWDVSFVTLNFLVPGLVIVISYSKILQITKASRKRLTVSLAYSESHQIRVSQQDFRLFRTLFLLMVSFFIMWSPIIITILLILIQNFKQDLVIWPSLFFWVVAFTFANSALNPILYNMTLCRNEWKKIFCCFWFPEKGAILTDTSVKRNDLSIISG
Experiment: GPR120 agonism in CHO mitoPhotinaGPR120 cell based assay with fluorescent (Fluo-8 calcium, FLIPRTetra) readout, Agonist Mode, dose response
Settings: CHO mitoPhotinaGPR120 cells, Fluo-8 No Wash Ca2+ dye, dose response in quadruplicate, 0.0033% fatty acid free BSA
Label scheme for EC50: bucket A = under 0.5 µM, bucket B = from 0.5 µM up to 2 µM, bucket C = 2 µM and over

[
  {
    "Molecule": "Cc1nn(-c2ccc(OC(F)(F)F)cc2)c(COc2ccc(CCO)cc2)c1C#N",
    "Class": "bucket C"
  },
  {
    "Molecule": "Cc1nn(-c2ccc(F)cn2)c(COc2ccc(CCCO)cc2)c1C#N",
    "Class": "bucket A"
  },
  {
    "Molecule": "COc1ccc(-n2nc(C)c(C#N)c2COc2ccc(CCCO)cc2)nc1",
    "Class": "bucket A"
  },
  {
    "Molecule": "Cc1nn(-c2ccccc2)c(COc2c(F)cc(CC(C)CO)cc2F)c1C#N (single isomer, unassigned; (+)) [Example 43B]",
    "Class": "bucket B"
  },
  {
    "Molecule": "Cc1nn(-c2ccc(F)cc2)c(COc2cccc(F)c2)c1C#N",
    "Class": "bucket C"
  },
  {
    "Molecule": "Cc1nn(-c2ccccc2)c(COc2c(F)cc(CC(C)CO)cc2F)c1C#N (racemic) [Example 43]",
    "Class": "bucket A"
  },
  {
    "Molecule": "Cc1ccc(OCc2c(C#N)c(C)nn2-c2ccccc2)cn1",
    "Class": "bucket C"
  },
  {
    "Molecule": "Cc1nn(-c2ccccc2)c(COc2ccc(F)cc2)c1C#N",
    "Class": "bucket B"
  },
  {
    "Molecule": "Cc1nn(-c2ccccc2)c(COc2cccc3cccnc23)c1C#N",
    "Class": "bucket C"
  },
  {
    "Molecule": "Cc1ccc(-n2nc(C)c(C#N)c2COc2ccc(CCCO)cc2)nc1",
    "Class": "bucket A"
  },
  {
    "Molecule": "Cc1ccnc(C)c1OCc1c(C#N)c(C)nn1-c1ccccc1",
    "Class": "bucket C"
  },
  {
    "Molecule": "Cc1nn(C2CCCCC2)c(COc2ccc(CCO)cc2)c1C#N",
    "Class": "bucket C"
  },
  {
    "Molecule": "Cc1ccccc1OCc1c(C#N)c(C)nn1-c1ccc(F)cc1",
    "Class": "bucket B"
  },
  {
    "Molecule": "Cc1nn(-c2ccc(F)cc2F)c(COc2ccc(CCO)cc2)c1C#N",
    "Class": "bucket C"
  },
  {
    "Molecule": "Cc1nn(-c2ccccc2)c(COc2c(F)cc(CC(C)CO)cc2F)c1C#N (single isomer, unassigned; (+)) [Example 43A]",
    "Class": "bucket A"
  },
  {
    "Molecule": "COc1ccc(-n2nc(C)c(C#N)c2COc2c(F)cc(CCCO)cc2F)cc1",
    "Class": "bucket A"
  },
  {
    "Molecule": "Cc1cccc(OCc2c(C#N)c(C)nn2-c2ccccc2)c1C",
    "Class": "bucket B"
  },
  {
    "Molecule": "Cc1nn(-c2ccc(C#N)cc2)c(COc2ccc(CCO)cc2)c1C#N",
    "Class": "bucket C"
  },
  {
    "Molecule": "Cc1nn(-c2ccccc2)c(COc2c(F)cc(CCC(=O)O)cc2F)c1C#N",
    "Class": "bucket C"
  },
  {
    "Molecule": "Cc1nn(-c2ccccc2)c(COc2ccc(CO)cc2Cl)c1C#N",
    "Class": "bucket B"
  },
  {
    "Molecule": "N#Cc1cnn(-c2ccccc2)c1COc1ccc(CCO)cc1",
    "Class": "bucket C"
  },
  {
    "Molecule": "COc1cccc(-n2nc(C)c(C#N)c2COc2ccc(CCO)cc2)c1",
    "Class": "bucket B"
  },
  {
    "Molecule": "Cc1cccc(C)c1OCc1c(C#N)c(C)nn1-c1ccccc1",
    "Class": "bucket B"
  },
  {
    "Molecule": "Cc1nn(-c2ccccn2)c(COc2c(F)cc(CCCO)cc2F)c1C#N",
    "Class": "bucket A"
  },
  {
    "Molecule": "Cc1nn(-c2ccccc2)c(COc2ccc3ccncc3c2)c1C#N",
    "Class": "bucket C"
  },
  {
    "Molecule": "Cc1nn(-c2ccccc2)c(COc2ccc(CCCO)cc2)c1C#N",
    "Class": "bucket A"
  },
  {
    "Molecule": "CCc1ccc(-n2nc(C)c(C#N)c2COc2ccc(CCO)cc2)cc1",
    "Class": "bucket A"
  },
  {
    "Molecule": "Cc1ccc(-n2nc(C)c(C#N)c2COc2c(F)cc(CCCO)cc2F)cc1",
    "Class": "bucket A"
  }
]
